System: Ba/F3-WT (wild type) cells
measurement-notes: Ba/F3 Proliferation Assay, Ba/F3-WT (wild type) cells with mIL-3 (Resazurin)
Type: cell-based
conditions: Mus musculus, BaF3, 48 h, Ba/F3-WT cells +mIL-3, 48-hour incubation
reported-metric: pEC50
Quick note: pEC50 means taking -log10 of the concentration in moles per liter.

Q: What pEC50 appears in the records for this compound with Ba/F3-WT (wild type) cells? CC1(C)CNC[C@@H](COc2cc(-c3cnn(C4CC4)c3)cc3ncccc23)O1
Ans: 5.71

Q: Again, but for CC(C)n1cc(-c2cc(OC[C@@H]3CNCC4(CC4)O3)c3cccnc3c2)cn1
Ans: 6.21

Q: Again, but for C[C@@H](Oc1cc(-c2ccn(C)c2)cc2ncccc12)[C@@H]1CNCC(C)(C)O1
Ans: 5.73

Q: Again, but for CC1(C)CNC[C@@H](COc2cc(-c3ccn(CC(F)F)c3)cc3ncccc23)O1
Ans: 5.75

Q: Again, but for CC[C@@]1(COc2nc(-c3cnn(C(C)C)c3)cc3ncccc23)CNCCO1
Ans: 5.92

Q: Again, but for CC(C)(C)n1cc(-c2cc3ncccc3c(OC[C@@H]3CNC[C@H](C(F)F)O3)n2)cn1
Ans: 5.81

Q: Again, but for Cn1ccc(-c2cc(OC[C@@H]3CNCC(C)(C)O3)c3cccnc3c2)c1
Ans: 5.34

Q: Again, but for CCn1ccc(-c2cc3ncccc3c(OC[C@@H]3CNCCO3)n2)c1
Ans: 5.58
